# Lookup of reported cell viability, A375 Parental, 1μΜ keyed by entry
System: A375 cells (parental)
Test: Kinase inhibitor library screening, PrestoBlue cell viability, 1 or 10 μM, 72 h
Conditions: A375 Parental, 1μΜ, 72 h; in %

| Compound | cell viability, A375 Parental, 1μΜ |
| --- | --- |
| C=CC(=O)Nc1cc2c(Nc3ccc(F)c(Cl)c3)ncnc2cc1OCCCN1CCOCC1 | 105.5 |
| COc1cc2ncnc(Nc3cccc(Br)c3)c2cc1OC.Cl [PD153035 HCl] | 108.8 |
| CCO.N#CC(=C(/N)Sc1ccccc1N)/C(C#N)=C(\N)Sc1ccccc1N | 100.1 |
| CCOc1cc2ncc(C#N)c(Nc3ccc(F)c(Cl)c3)c2cc1NC(=O)/C=C/CN(C)C [Pelitinib (EKB-569)] | 103.3 |
| O=C(NOCC1CC1)c1ccc(F)c(F)c1Nc1ccc(I)cc1Cl | 22.5 |
| O=c1cc(N2CCOCC2)oc2c(-c3cccc4c3sc3ccccc34)cccc12 | 98.8 |
| Nc1ncnc2c1c(-c1cccc(OCc3ccccc3)c1)cn2C1CC(CN2CCCC2)C1 (stereo not shown) | 89.6 |
| CCN1CCN(Cc2ccc(-c3cc4c(N[C@H](C)c5ccccc5)ncnc4[nH]3)cc2)CC1 | 108.2 |
| O=C1NC(=O)C(c2ccccc2[N+](=O)[O-])=C1Nc1ccc(O)c(Cl)c1 | 99.8 |
| CNC(=O)c1c(F)cccc1Nc1nc(Nc2cc3c(cc2OC)CCN3C(=O)CN(C)C)nc2[nH]ccc12 [GSK1838705A, reference compound] | 68.1 |
| Nc1cccc(-c2cc3c(Oc4cccc(O)c4)ncnc3[nH]2)c1 | 93.6 |
| CC(O)C(=O)O.CC(O)C(=O)O.CN1CCN(c2ccc3nc(-c4c(N)c5c(F)cccc5[nH]c4=O)[nH]c3c2)CC1 | 106.9 |
| CNC(=O)c1ccccc1Nc1nc(Nc2ccc(N3CCOCC3)cc2OC)ncc1Cl | 51.1 |
| CN(c1ncccc1CNc1nc(Nc2ccc3c(c2)CC(=O)N3)ncc1C(F)(F)F)S(C)(=O)=O | 104.9 |
| Cc1cnc(Nc2ccc(OCCN3CCCC3)cc2)nc1Nc1cccc(S(=O)(=O)NC(C)(C)C)c1 [TG101348 (SAR302503)] | 100.2 |
| CCOc1cc2ncc(C#N)c(Nc3ccc(OCc4ccccn4)c(Cl)c3)c2cc1NC(=O)/C=C/CN(C)C | 97.5 |

---

Tested on: A375 cells (parental)
Test: Dose-response curves and IC50, PrestoBlue cell viability, 72 h
Assay type: cell-based, human
Conditions: Homo sapiens, A-375, n.e. = did not suppress growth below 50% in the tested concentration range, read-out: Half-maximal inhibitory concentration value (IC50), Mean
# note: exactly 600 nM is not below, so it is false (0); use true (1) for IC50 strictly under it

| Compound | Class Label |
| --- | --- |
| CCS(=O)(=O)c1cccc(-c2cc(C(=O)NC3CCN(C)CC3)c(C)c3[nH]c4ncc(C)cc4c23)c1 [TAK-901, reference compound] | true (1) |
| CC(=O)Nc1cccc(-n2c(=O)n(C3CC3)c(=O)c3c(Nc4ccc(I)cc4F)n(C)c(=O)c(C)c32)c1 | true (1) |
| CNC(=O)c1cc(Oc2ccc(NC(=O)Nc3ccc(Cl)c(C(F)(F)F)c3)cc2)ccn1 | false (0) |
| C[C@]1(O)C[C@@H](c2nc(-c3ccc4ccc(-c5ccccc5)nc4c3)c3c(N)nccn32)C1 | false (0) |
| CCCS(=O)(=O)Nc1ccc(F)c(C(=O)c2c[nH]c3ncc(-c4ccc(Cl)cc4)cc23)c1F | true (1) |
| C=CCn1c(=O)c2cnc(Nc3ccc(N4CCN(C)CC4)cc3)nc2n1-c1cccc(C(C)(C)O)n1 [MK-1775, reference compound] | true (1) |
| O=C(O)c1ccc2c(c1)nc(Nc1cccc(Cl)c1)c1ccncc12 | false (0) |
| CNC(=O)c1cc(Oc2ccc(NC(=O)Nc3ccc(Cl)c(C(F)(F)F)c3)c(F)c2)ccn1 | false (0) |
| NC1(c2ccc(-c3nc4ccn5c(=O)[nH]nc5c4cc3-c3ccccc3)cc2)CCC1 | false (0) |
| CC[C@@H]1C(=O)N(C)c2cnc(Nc3ccc(C(=O)N[C@H]4CC[C@H](N5CCN(CC6CC6)CC5)CC4)cc3OC)nc2N1C(C)C | true (1) |
| COc1cc(OC)c(/C=C/S(=O)(=O)Cc2ccc(OC)c(NCC(=O)O)c2)c(OC)c1 | true (1) |
| Cc1ccc(C(=O)Nc2ccc(CN3CCN(C)CC3)c(C(F)(F)F)c2)cc1C#Cc1cnc2cccnn12 | false (0) |
| CO[C@@H](C(=O)N1Cc2n[nH]c(NC(=O)c3ccc(N4CCN(C)CC4)cc3)c2C1)c1ccccc1 | true (1) |
| C[C@@H](Oc1cc(-c2cnn(C3CCNCC3)c2)cnc1N)c1c(Cl)ccc(F)c1Cl | false (0) |
| O=C(Nc1cc(C(F)(F)F)cc(C(F)(F)F)c1)c1cc(Cl)ccc1O [IMD 0354, reference compound] | false (0) |
| Cc1cc(C(=O)NOCCO)c(Nc2ccc(I)cc2F)n(C)c1=O [AZD8330, reference compound] | true (1) |
| O=C(NC1CCNCC1)c1[nH]ncc1NC(=O)c1c(Cl)cccc1Cl [AT7519, reference compound] | true (1) |
